Entries annotated with measured NADPH oxidation (nM min-1 (mg of protein)-1)
Species on record: Rattus norvegicus
test: Stimulation of NADPH oxidation in the presence of rat liver microsomes
Format: functional
Starred links: 1 amine or outer side, 2 acyl side, 3 side chain; linkers in the order of their positions; H or OH if unused. Positions of bridges follow the written chain, without caps; N, C: chain ends. Non-standard residues stand in square brackets, D forms with d. Residues, ends and D or L forms follow the SMILES beside them. Chains are numbered I, II in the order given. Actinocin(9to1) = Cc1c2oc3c(C)ccc(C(=O)[*:1])c3nc-2c(C(=O)[*:2])c(N)c1=O; NMeV = CN[C@H](C(=O)O)C(C)C; Sar = CNCC(=O)O
endpoint: NADPH oxidation (nM min-1 (mg of protein)-1)

>  <compound>
Cc1c2oc3c(C)c(O)c(N)c(C(=O)N[C@@H]4C(=O)N[C@H](C(C)C)C(=O)N5CCC[C@H]5C(=O)N(C)CC(=O)N(C)[C@@H](C(C)C)C(=O)O[C@@H]4C)c3nc-2c(C(=O)N[C@@H]2C(=O)N[C@H](C(C)C)C(=O)N3CCC[C@H]3C(=O)N(C)CC(=O)N(C)[C@@H](C(C)C)C(=O)O[C@@H]2C)c(N)c1=O

>  <result_value>
64.3

$$$$
>  <compound>
Cc1c2oc3c(C)c4oc(CC(=O)NCCCCN)nc4c(C(=O)N[C@@H]4C(=O)N[C@H](C(C)C)C(=O)N5CCC[C@H]5C(=O)N(C)CC(=O)N(C)[C@@H](C(C)C)C(=O)O[C@@H]4C)c3nc-2c(C(=O)N[C@@H]2C(=O)N[C@H](C(C)C)C(=O)N3CCC[C@H]3C(=O)N(C)CC(=O)N(C)[C@@H](C(C)C)C(=O)O[C@@H]2C)c(N)c1=O

>  <result_value>
87.1

$$$$
>  <compound>
Cc1c2oc3c(C)ccc(C(=O)N[C@@H]4C(=O)N[C@H](C(C)C)C(=O)N5CCC[C@H]5C(=O)N(C)CC(=O)N(C)[C@@H](C(C)C)C(=O)O[C@@H]4C)c3nc-2c(C(=O)N[C@@H]2C(=O)N[C@H](C(C)C)C(=O)N3CCC[C@H]3C(=O)N(C)CC(=O)N(C)[C@@H](C(C)C)C(=O)O[C@@H]2C)c(N)c1=O [DACTINOMYCIN] (I: T[dV]P[Sar][NMeV] / II: T[dV]P[Sar][NMeV]; ester I:1-I:C, II:1-II:C; linker I:N-II:N via Actinocin(9to1))

>  <result_value>
10

$$$$
>  <compound>
Cc1c2oc3c(C)c4oc(-c5ccccc5)nc4c(C(=O)N[C@@H]4C(=O)N[C@H](C(C)C)C(=O)N5CCC[C@H]5C(=O)N(C)CC(=O)N(C)[C@@H](C(C)C)C(=O)O[C@@H]4C)c3nc-2c(C(=O)N[C@@H]2C(=O)N[C@H](C(C)C)C(=O)N3CCC[C@H]3C(=O)N(C)CC(=O)N(C)[C@@H](C(C)C)C(=O)O[C@@H]2C)c(N)c1=O

>  <result_value>
65

$$$$

* * *

Species on record: Rattus norvegicus
test: The formation of adrenochrome from epinephrine in the absence of SOD(super oxide dismutase)
Format: functional
Starred links: 1 amine or outer side, 2 acyl side, 3 side chain; linkers in the order of their positions; H or OH if unused. Positions of bridges follow the written chain, without caps; N, C: chain ends. Non-standard residues stand in square brackets, D forms with d. Residues, ends and D or L forms follow the SMILES beside them. Chains are numbered I, II in the order given. Actinocin(9to1) = Cc1c2oc3c(C)ccc(C(=O)[*:1])c3nc-2c(C(=O)[*:2])c(N)c1=O; NMeV = CN[C@H](C(=O)O)C(C)C; Sar = CNCC(=O)O
endpoint: Adrenochrome formation

>  <compound>
Cc1c2oc3c(C)ccc(C(=O)N[C@@H]4C(=O)N[C@H](C(C)C)C(=O)N5CCC[C@H]5C(=O)N(C)CC(=O)N(C)[C@@H](C(C)C)C(=O)O[C@@H]4C)c3nc-2c(C(=O)N[C@@H]2C(=O)N[C@H](C(C)C)C(=O)N3CCC[C@H]3C(=O)N(C)CC(=O)N(C)[C@@H](C(C)C)C(=O)O[C@@H]2C)c(N)c1=O [DACTINOMYCIN] (I: T[dV]P[Sar][NMeV] / II: T[dV]P[Sar][NMeV]; ester I:1-I:C, II:1-II:C; linker I:N-II:N via Actinocin(9to1))

>  <endpoint>
Adrenochrome formation

>  <result_value>
2.29 nM min-1 (mg of protein)-1

$$$$
>  <compound>
Cc1c2oc3c(C)c4oc(CC(=O)NCCCCN)nc4c(C(=O)N[C@@H]4C(=O)N[C@H](C(C)C)C(=O)N5CCC[C@H]5C(=O)N(C)CC(=O)N(C)[C@@H](C(C)C)C(=O)O[C@@H]4C)c3nc-2c(C(=O)N[C@@H]2C(=O)N[C@H](C(C)C)C(=O)N3CCC[C@H]3C(=O)N(C)CC(=O)N(C)[C@@H](C(C)C)C(=O)O[C@@H]2C)c(N)c1=O

>  <endpoint>
Adrenochrome formation

>  <result_value>
22.1 nM min-1 (mg of protein)-1

$$$$
>  <compound>
Cc1c2oc3c(C)c(O)c(N)c(C(=O)N[C@@H]4C(=O)N[C@H](C(C)C)C(=O)N5CCC[C@H]5C(=O)N(C)CC(=O)N(C)[C@@H](C(C)C)C(=O)O[C@@H]4C)c3nc-2c(C(=O)N[C@@H]2C(=O)N[C@H](C(C)C)C(=O)N3CCC[C@H]3C(=O)N(C)CC(=O)N(C)[C@@H](C(C)C)C(=O)O[C@@H]2C)c(N)c1=O

>  <endpoint>
Adrenochrome formation

>  <result_value>
19.3 nM min-1 (mg of protein)-1

$$$$
>  <compound>
Cc1c2oc3c(C)c4oc(-c5ccccc5)nc4c(C(=O)N[C@@H]4C(=O)N[C@H](C(C)C)C(=O)N5CCC[C@H]5C(=O)N(C)CC(=O)N(C)[C@@H](C(C)C)C(=O)O[C@@H]4C)c3nc-2c(C(=O)N[C@@H]2C(=O)N[C@H](C(C)C)C(=O)N3CCC[C@H]3C(=O)N(C)CC(=O)N(C)[C@@H](C(C)C)C(=O)O[C@@H]2C)c(N)c1=O

>  <endpoint>
Adrenochrome formation

>  <result_value>
18.8 nM min-1 (mg of protein)-1

$$$$
